Source of measurements: the domain aggregation screens of Martell et al. (2025)

This listing pairs sequences with measured soluble fraction (log2).
Experimental Details: soluble fraction after stress (log2 fold change); higher = more stays soluble; pooled small domains, quantitative proteomics
Conditions: stress: pH 4
Measured Metric: soluble fraction (log2)

                              chain_sequence  measured_value
 0  HMAHETIDVAALRVGMFVQLDLGWLSHPFPLSSFRISSEDQIATIRALGLKRVRWSSEQSDS           -2.26
 1  HMETKPTELMLEVHELRIGMFVHLDLGWMDHPFPLNRFKISTNSQIEQIKGLRLKQVKVMTALSDPTALS           -1.25
 2  HMSTTALLEKMVRYIRTLPVISQVVLSLHYYRGMELREIASELDITESRASQLHTTAVLGIRDLLSSY           -2.02
 3  HMSGRSVSYSEFMSRVEAGQVSSVTLDGERVEVTGSDGSRYVTIAPSDATLTDKLVAKGVEVRADP           0.196
 4  HMEVPDTIIRLRELVAAMPEQWQKVYRLVFMEGLSKAKAGKKIGISDVRVGQLVKKINAAIAGDETLK          0.0594
 5  HMASLSITVNGETRRAAPGSIADLVRAIGLDPAKVAVERNGEIAPRSTLADVALADGDVLEIVHFVG           0.147
 6  HMQDYISAEEAKSAALSASQVDSAGAAFSAAELGEKNGIPYYEVAFTADGLEYRYAIDAQTGTVIESSSSG          -0.164
 7  HMSSYTQEDVRSGILYMAQLKPRNIEEFVSTLAFSKDDIMDNLSFLVDEGFLKFDADTDTYFNPVPL          -0.604
 8  HMSKININTITESELKELPISTVKQKAIQDYLIDRGFISNIYDLLDIKEITSDDVSLLKKVVNVKLPY          -0.796
 9  HMSRMLTVKQREVFDLAMREGYWETPRRITLTMLASLLSVSKSTLSVQLHKIEGTVLSSFSDEVRRRS          -0.011
10  HMSSEPASLVGKTGVAASVLRPSGRVEVNGEYYDAVSINGFIEKGESVFVHKYENAQLYVSKNSE          -0.183
11  HMIADPAKPDWTTILAPVTTGTTVTHKTFGQGTVTKLDKTKKYLTVSFAAGQKNFVFPNAFIDGFLK          -0.105
12  HMLERKPVLVASRDLPALAVIGKDDLSVELLRTAPVGSYDRPEALLGKRVWVAVPAGSILSAATLEP         -0.0428
13  HMFKLPRTIGTFEDSDVVIGAGKFGPYIMHNKKFVSLPKSEDPLTIGLERAIELISAKREQEKQRH           0.237
14  HMQSREISYSDFVASVERGEVATVILDGENIRFKGGDNVEYVTVRPADTNVTDLLIENQVVVRAEK          -0.824
15  HMAIELTPRQLDIIELVRKHAPITGEQIAELLGVTRPSIRSDLGLLVMLGYIDAKPKVGYFAGPRM          -0.893
16  HMDPFVILGISKDSSQSEILEAYKTKRAYYQEHVFDEGDQGAQAARMLGQLDDAYQQAMELSHE           0.139
17  HMGDAPLITVDKRTIKVNGAKAQIQVYDTTGRLVKNVSPAGKLTLIEMAKPGIFIVHTQSMSFKVVL         0.00664
18  HMEVNMEEKMEFVHSYIKTHKTFLFRQLLSESKSRTQVIVTFLVILELIKGGKISVTQENRTDDILINSL          -0.521
19  HMQSVKTQPLRDWLLAHFDKPYPDDEDKVRLAEASGMTRAQVGNWFINARVRTWRPMVLDLGEEIERESV          -0.521
20  HMIESVMVGIKELLGDTIDQKYEKYIRLGGIPSDEVDEFNSVFSAYEKVNGNHNGKKKYDYVMNNLPIIPV           -1.54
21  HMLTGADAEKATAAAQAEFPGGTVLRVETDADGTYEAHVRKADGTEVEVKMDKDFKVTSVEE         -0.0221
22  HMQRDERYVYHTVLAGETIYSLSRKFNVTMDELLESNPALRSGVLTTGSEIRVLKAQMAQNFD           0.383
23  HMKDPSLEHIDALAGKPFQAFPGQDHRAHITAHLNFMSTNMVRNNPSIMAAIQKNILEHISLMAQEQIQL          -0.683
24  HMQIDRLFDIVYTLLRKKSATAAELAERFGVSKRTILRDIETLSVAGIPILTSPGKGGGVSISSSF          -0.423
25  HMTYFDIAPELLTVYKEINDIPRDINQIVRKTGLSINEVSYKTMILQLEDKIVELPGQRFIRNS          -0.815
26  HMTPGPFLVYITGAVERPNVLVTLDYGSRVIDALNAAGGSRIDANLDLVNLAQRLVDGDQIHVPTLR            -1.1
27  HMIPSLTITVNEHSRQITRGTSLYTLRDALYPDADVLVVNGHPADSDRHLEEGDAVVLIRRGA          -0.394
28  HMRPTHYSGPSVIAMINNRVWFSDGSRLAPGEHHDDLEVVGLSPPWSAKVRWQGVEFDVGLFE          -0.946
29  HMNVAVSEADAKAAALERVSGATEADIRMELELDDGYYVYEGDIIYQQKEYEFEIDAQTGKFLKWSEER          0.0965
30  HMNAKKSTLQLDLLKQLLEGNKISLKDFSLSNEISIRTAQRYIEDLLEIFEKNIVKEGDFYSFIS           -1.34
31  HMSMLGTEQRVLVLGPARKGEGFLMARTDNNRIVNFEGPLSLVDTMVRVKVTDVYPHSLGGQLL         -0.0321
32  HMVLLGAAIRELRIQKGITIEELAEMSGLSTGLISKIERDLGNPSISSLRKISRALGVPTAFFFA          -0.744
